# System: MKL-2
# test name: qHTS assay to identify novel small-molecules to repurpose for Merkel cell carcinoma treatment (AID 1296009); note: nearly all actives have a fitted effect of over 60% in size
# condition summary: MCC and control cell lines, CellTiter-Glo viability, 72 h; series mostly up to 46 µM
Results filed as inconclusive are left out. Activity calls are given as the source filed them. Calls come from the whole dose curve; as a rule, active = well fitted inhibition curve with a large enough effect; inconclusive = small, poorly fitted or top-dose-only effect; inactive = flat fitted curve, though single readings scatter.
Labels: active, inactive

>>> df
                                   molecule  target_system  group_label
0  C[C@](Cc1c[nH]c2ccccc12)(NC(=O)OC1C2CC3CC(C2)CC1C3)C(=O)NC[C@H](NC(=O)CCC(=O)O)c1ccccc1 (stereo partly drawn)          MKL-2     inactive
1  COc1cc(C=CC(=O)CC(=O)C=Cc2ccc(O)c(OC)c2)ccc1O          MKL-2       active
2                  CC1(C)CC(O)CC(C)(C)N1[O]          MKL-2     inactive
